Below, each entry is listed with its recorded pEC50.
Target under test: hGLP-1R (Homo sapiens, UniProt P43220)
Sequence (P43220 24-463): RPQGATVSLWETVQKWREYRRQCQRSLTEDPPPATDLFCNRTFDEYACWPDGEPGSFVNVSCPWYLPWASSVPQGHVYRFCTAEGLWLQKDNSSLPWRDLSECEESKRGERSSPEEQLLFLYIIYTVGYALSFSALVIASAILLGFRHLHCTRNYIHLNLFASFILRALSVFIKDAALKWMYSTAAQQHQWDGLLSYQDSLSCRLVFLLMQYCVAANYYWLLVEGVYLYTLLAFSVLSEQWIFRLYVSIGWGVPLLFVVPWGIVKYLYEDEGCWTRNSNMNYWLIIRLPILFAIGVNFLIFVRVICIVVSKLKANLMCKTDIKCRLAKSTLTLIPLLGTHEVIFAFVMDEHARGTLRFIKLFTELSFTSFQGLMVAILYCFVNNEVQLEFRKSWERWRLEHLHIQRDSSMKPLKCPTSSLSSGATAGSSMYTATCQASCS
Measurement protocol: Functional cAMP activity in the presence of 1% HSA
Type: cell-based
Condition set: read-out: cAMP Rel EC50, hGLP-1R
Starred links: 1 amine or outer side, 2 acyl side, 3 side chain; linkers in the order of their positions; H or OH if unused. Non-standard residues stand in square brackets, D forms with d. Groups on a side chain read outwards from the residue. No end group written: not given here. *: point of attachment. C20 diacid = O=C(O)CCCCCCCCCCCCCCCCCCC(=O)*; C18 diacid = O=C(O)CCCCCCCCCCCCCCCCC(=O)*; αMePhe(2-F) = C[C@](N)(Cc1ccccc1F)C(=O)O; γGlu = O=C(O)[C@H](CCC(=O)[*:2])N[*:1]; αMe4Pal = C[C@](N)(Cc1ccncc1)C(=O)O; αMeY = C[C@](N)(Cc1ccc(O)cc1)C(=O)O; 4Pal = N[C@@H](Cc1ccncc1)C(=O)O; αMeL = CC(C)C[C@](C)(N)C(=O)O; αMeS = C[C@](N)(CO)C(=O)O; Orn = NCCC[C@H](N)C(=O)O; AEEA = NCCOCCOCC(=O)O; Aib = CC(C)(N)C(=O)O
Interpret pEC50 as the negative base-10 log of the concentration measured in mol/L.

Y[Aib]QGT[αMePhe(2-F)]TSD[4Pal][αMeS]I[αMeL]LD[Orn]K([γGlu-γGlu-C18 diacid])AQ[αMe4Pal]EFI[dE][αMeY]LIEGGPSSGAPPPEGGGEEE-NH2 [Example 1221] = 7.24

Looking for the measured pEC50 of H-Y[Aib]QGTFTSDFSK[αMeL]LDKK([AEEA-γGlu-C20 diacid])AQ[Aib]AFIEYLLEGGPSSGEPPPEEG-NH2 [Example 35] , can you help?
5.95

Looking for the measured pEC50 of H-Y[Aib]QGTFTSDFSK[αMeL]LDKK([AEEA-γGlu-C20 diacid])AQ[Aib]AFIEYLLAGGPSSGAPPPGGE-NH2 [Example 15] , can you help?
6.56

Looking for the measured pEC50 of H-Y[Aib]QGTFTSD[4Pal]SQ[αMeL]LD[Orn]K([dE-γGlu-C18 diacid])AQ[αMe4Pal]AFIQ[αMeY]LIA[Aib]GPSSGEPPPSGGGE-NH2 [Example 1130] , can you help?
7.35

Looking for the measured pEC50 of H-Y[Aib]QGTFTSDFSK[αMeL]LDKK([AEEA-γGlu-C20 diacid])AQ[Aib]AFIEYLLAGGPSSGAPPPSGS-NH2 [Example 14] , can you help?
6.63

Looking for the measured pEC50 of H-Y[Aib]QGTFTSD[4Pal]SQ[αMeL]LDKK([dE-γGlu-C18 diacid])AQ[αMe4Pal]AFIEYLIE[Aib]GPSSGAPPPSGS-NH2 [Example 920] , can you help?
6.49
